- Tested on: SYO-1
- assay: relative viability vs DMSO control (72 h) (fraction); higher = more viable cells
- experimental-conditions: 0.3704 µM
measure: relative viability
Give the figure by itself; no unit, no explanation.

Below, each entry is followed by its recorded relative viability result.
- compound: "O=S(=O)(c1cccc2cnccc12)N1CCCNCC1"
  value: 0.983
- compound: "CNC(=O)c1ccccc1Sc1ccc2c(/C=C/c3ccccn3)n[nH]c2c1"
  value: 0.485
- compound: "CC(C)(O)CNc1nc(Nc2ccnc(C(F)(F)F)c2)nc(-c2cccc(C(F)(F)F)n2)n1"
  value: 0.979
- compound: "C[C@H](Nc1ncnc2nc[nH]c12)c1cc2cccc(Cl)c2c(=O)n1-c1ccccc1"
  value: 0.911
- compound: "O=C1NC(=O)[C@@H](c2cn3c4c(cccc24)CCC3)[C@@H]1c1c[nH]c2ccccc12 [Tivantinib]"
  value: 0.716
- compound: "COc1cc(OC)c(/C=C/S(=O)(=O)Cc2ccc(OC)c(NCC(=O)O)c2)c(OC)c1"
  value: 0.896
- compound: "CC(C)(C)c1nc(-c2cccc(NS(=O)(=O)c3c(F)cccc3F)c2F)c(-c2ccnc(N)n2)s1"
  value: 0.939
- compound: "COc1cc(Nc2ncc(F)c(Nc3ccc4c(n3)N(COP(=O)(O)O)C(=O)C(C)(C)O4)n2)cc(OC)c1OC"
  value: 0.656

The reported value for COCCNc1cc(NC(=O)N2CCCc3cc(CN4CCN(C)CC4=O)c(C=O)nc32)ncc1C#N in terms of relative viability is 0.855

The reported value for Cc1cc2cc(Oc3ccnc(Nc4cccc(CS(=O)(=O)NCCN(C)C)c4)n3)ccc2[nH]1 in terms of relative viability is 0.607

meta.source: the supplement of paper PMC10883282
